Data credit: paper PMC5892938

Target Of Assay: GST-SBP-SLBP (stem-loop binding protein) (Homo sapiens, UniProt Q14493 1-270)
Protocol Description: targeted RNA Bind-n-Seq; RBNS binding buffer: 25 mM Tris pH 7.5, 150 mM KCl, 3 mM MgCl2, 0.1% Tween, 0.5 mg/mL BSA, 1 mM DTT; 27 nM protein, 750 pM RNA pool; temperature not stated; high values mean tight binding
Condition Parameters: protein: recombinant; tags: N-terminal GST and SBP (pGEX6P1-SBP)
Could you please report measured binding signal for the items listed next?
Numbers only, in log2 fold change.

Binder	binding signal [log2 fold change]
consensus (structured_RNA) RNA: GGUCACGUCUCAAUCAACUCCCAAAGGCUCUUCUGAGAGCCACCCAUCAACAGCUCGCAGUCAAG	2.5
consensus (structured_RNA) RNA: GGUCACGUCUCAAUCAACUCCCAAAGGCUUUUCUGAAAGCCACCCAUCAACAGCUCGCAGUCAAG	2.53
consensus (structured_RNA) RNA: GGUCACGUCUCAAUCAACUCCCAAAGGUCUUUCUUAAGACCACCCAUCAACAGCUCGCAGUCAAG	3.14

Please give binding signal, item by item, for the list that follows.
1. consensus (structured_RNA) RNA: GGUCACGUCUCAAUCAACUCCCAAAGGCCCUUCUAAGGGCCACCCAUCAACAGCUCGCAGUCAAG
2. consensus (structured_RNA) RNA: GGUCACGUCUCAAUCAACUCCCAAAGGCUUUUCUUAAGGCCACCCAUCAACAGCUCGCAGUCAAG

# output
1: 3.65; 2: 2.45

Please give binding signal, item by item, for the list that follows.
1. consensus (structured_RNA) RNA: GGUCACGUCUCAAUCAACUCCCAAAGGUUCUUCUAAGGGCCACCCAUCAACAGCUCGCAGUCAAG
2. consensus (structured_RNA) RNA: GGUCACGUCUCAAUCAACUCCCAAAGGUCCUUCUAAGGACCACCCAUCAACAGCUCGCAGUCAAG
3. consensus (structured_RNA) RNA: GGUCACGUCUCAAUCAACUCCCAAAGGCCUUUUUCAAGGCCACCCAUCAACAGCUCGCAGUCAAG
4. consensus (structured_RNA) RNA: GGUCACGUCUCAAUCAACUCCCAAAGGUUCUUCUUAGAGCCACCCAUCAACAGCUCGCAGUCAAG

# output
2.42
3.48
3.7
2.28

# input Need binding signal of consensus (structured_RNA) RNA: GGUCACGUCUCAAUCAACUCCCAAAGGCUCUUCUAAGGGCCACCCAUCAACAGCUCGCAGUCAAG , thanks.
# output 3.19
